The reported measurements were obtained from ChEMBL document CHEMBL2010740.

- assay-explanation: Oral bioavailability in rat at 10 umol/kg, ip
- Assay type: ADME, organism-based
- measurement-context: in vivo, intraperitoneal
readout-name: bioavailability (%)
One number for each entry, in %.

stdin: // lookup bioavailability for CCCNC(=O)c1c(NC(=O)C23CC4CC(CC2C4)C3)sc2c1CCOC2
stdout: 96

* * *

- assay-explanation: Plasma clearance in rat at 3 umol/kg, iv
- Type: ADME, organism-based
readout-name: clearance (mL/min/kg)
Numbers only, in mL/min/kg.

stdin: // lookup clearance for CCCNC(=O)c1c(NC(=O)C23CC4CC(CC2C4)C3)sc2c1CCOC2
stdout: 63.3

* * *

- assay-explanation: Oral bioavailability in rat at 10 umol/kg
- Format: ADME, organism-based
- measurement-context: in vivo
readout-name: bioavailability (%)
Numbers only, in %.

stdin: // lookup bioavailability for CCCNC(=O)c1c(NC(=O)C23CC4CC(CC2C4)C3)sc2c1CCOC2
stdout: 11

* * *

I'd be grateful if you could share measured pKi for these entries.
- assay-system: UniProt:Q9QZN9
- Sequence (Q9QZN9 whole entry): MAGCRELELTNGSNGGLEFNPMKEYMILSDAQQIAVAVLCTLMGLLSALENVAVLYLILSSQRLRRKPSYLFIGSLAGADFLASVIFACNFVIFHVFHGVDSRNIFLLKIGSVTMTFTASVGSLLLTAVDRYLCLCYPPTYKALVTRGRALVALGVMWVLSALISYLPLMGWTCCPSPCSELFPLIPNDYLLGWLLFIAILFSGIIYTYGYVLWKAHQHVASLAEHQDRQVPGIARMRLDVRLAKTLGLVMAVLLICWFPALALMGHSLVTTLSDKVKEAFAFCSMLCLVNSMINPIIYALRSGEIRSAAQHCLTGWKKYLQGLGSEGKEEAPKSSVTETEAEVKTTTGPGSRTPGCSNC
- assay-explanation: Displacement of [3H]CP-55940 from rat recombinant CB2 receptor expressed in HEK293 cells after 90 mins
Numbers only, as −log10 of the molar value.

Solved cases (5 shown):
INSERT INTO results (molecule, result_value) VALUES
  ('COCCNC(=O)c1c(NC(=O)C23CC4CC(CC2C4)C3)sc2c1CCOC2', 6.58),
  ('CCCNC(=O)c1c(NC(=O)C2C(C)(C)C2(C)C)sc2c1CCOC2', 8.36),
  ('O=C(c1c(NC(=O)C23CC4CC(CC2C4)C3)sc2c1CCOC2)N1CC(F)(F)C1', 7.33),
  ('CCCNC(=O)c1c(NC(=O)C2CC3CCC2C3)sc2c1CCOC2 (configuration not stated)', 6.57),
  ('CCNC(=O)c1c(NC(=O)C23CC4CC(CC2C4)C3)sc2c1CCOC2', 6.53);

Please report pKi for every entry that follows.
1. CCCNC(=O)c1c(NC(=O)C23CC4CC(CC2C4)C3)sc2c1CCCC2
2. CCCNC(=O)c1c(NC(=O)C23CC4CC(CC(C4)C2)C3)sc2c1CCOC2
3. CCCNC(=O)c1c(NC(=O)C23CC4CC(CC2C4)C3)sc2c1CCOC2
4. CCCNC(=O)c1c(NC(=O)C23CC4CC(CC(C4)O2)C3)sc2c1CCOC2
5. CCCNC(=O)c1c(NC(=O)c2c(F)cccc2C(F)(F)F)sc2c1CCOC2
6. CCCNC(=O)c1c(NC(=O)C23CC4CC(CC2C4)C3)sc2c1CCN(C)C2

stdout:
1: 8.45; 2: 7.70; 3: 7.47; 4: 6.31; 5: 6.48; 6: 8.23

* * *

- assay-explanation: Volume of distribution during terminal phase in rat at 3 umol/kg, iv
- Assay type: ADME, organism-based
- measurement-context: in vivo, read-out: Vbeta
readout-name: Vd (L/kg)
Answers are plain numbers, in L/kg.

stdin: // lookup Vd for CCCNC(=O)c1c(NC(=O)C23CC4CC(CC2C4)C3)sc2c1CCOC2
stdout: 8.7

* * *

- assay-explanation: Metabolic stability in human microsomes assessed as compound remaining after 30 mins
- Type: ADME, Microsome
- measurement-context: read-out: Stability
readout-name: remaining at 0.5 h (%)
Numbers only, in %.

stdin: // lookup remaining at 0.5 h for CCCNC(=O)c1c(NC(=O)C23CC4CC(CC2C4)C3)sc2c1CCOC2
stdout: 9

* * *

- assay-system: Cannabinoid receptor 2 (Homo sapiens, UniProt P34972)
- Sequence (P34972 whole entry): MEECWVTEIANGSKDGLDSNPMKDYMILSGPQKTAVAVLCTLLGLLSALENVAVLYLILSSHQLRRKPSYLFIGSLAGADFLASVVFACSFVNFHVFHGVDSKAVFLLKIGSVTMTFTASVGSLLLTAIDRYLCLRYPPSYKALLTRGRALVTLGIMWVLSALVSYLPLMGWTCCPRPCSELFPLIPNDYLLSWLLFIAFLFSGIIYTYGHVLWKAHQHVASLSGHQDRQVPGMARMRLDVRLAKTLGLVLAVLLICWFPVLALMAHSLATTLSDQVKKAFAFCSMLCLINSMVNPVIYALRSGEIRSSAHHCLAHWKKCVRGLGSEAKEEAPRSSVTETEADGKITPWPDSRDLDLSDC
- assay-explanation: Agonist activity at human recombinant CB2 receptor expressed in HEK293 cells co-expressing chimeric Gaq/o protein by FLIPR assay
- Assay type: functional, cell-based
readout-name: IC50 (nM)
One number for each entry, in nM.

INSERT INTO assay_data (compound_string, result_value) VALUES
  ('O=C(c1c(NC(=O)C23CC4CC(CC2C4)C3)sc2c1CCOC2)N1CC(F)(F)C1', 5.62);

Please report IC50 for every entry that follows.
1. CCCNC(=O)c1c(NC(=O)C23CC4CC(CC(C4)C2)C3)sc2c1CCOC2
2. CCCNC(=O)c1c(NC(=O)C2C(C)(C)C2(C)C)sc2c1CCOC2
3. CCCNC(=O)c1c(NC(=O)C23CC4CC(CC2C4)C3)sc2c1CCOC2

stdout:
[42.7, 52.5, 70.8]

stdin: GET /values?readout=IC50&system=Cannabinoid receptor 2 (Homo sapiens, UniProt P34972)&item= CCCNC(=O)c1c(NC(=O)C23CC4CC(CC2C4)C3)sc2c1CCCC2
stdout: 83.2
